Target: T1, Human CD19-his protein (human, UniProt P15391 20-291)
T1 construct: bought protein; also called recombinant human CD19-His; CD19 full-length protein; not shown: His tag
T1 sequence (looked up): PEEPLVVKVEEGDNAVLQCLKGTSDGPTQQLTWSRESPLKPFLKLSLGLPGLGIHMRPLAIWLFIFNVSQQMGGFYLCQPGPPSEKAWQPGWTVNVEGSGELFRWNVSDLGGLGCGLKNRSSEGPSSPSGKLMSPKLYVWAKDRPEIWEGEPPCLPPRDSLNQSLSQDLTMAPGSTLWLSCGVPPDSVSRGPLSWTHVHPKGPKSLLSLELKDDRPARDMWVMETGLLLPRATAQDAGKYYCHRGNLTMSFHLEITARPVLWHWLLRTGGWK
Test: SPR Biacore, Ab captured on Protein A, CD19-His analyte
A collection of binders and their measured Kd
measure: Kd (nM)

>  <binder>
F3.126.15 (antibody, human IgG1, V domains shown, human-murine chimeric antibody, human IgG1 constant) VH: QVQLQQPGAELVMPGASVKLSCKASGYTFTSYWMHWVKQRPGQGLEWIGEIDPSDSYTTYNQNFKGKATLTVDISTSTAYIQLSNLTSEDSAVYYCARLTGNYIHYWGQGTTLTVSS VL: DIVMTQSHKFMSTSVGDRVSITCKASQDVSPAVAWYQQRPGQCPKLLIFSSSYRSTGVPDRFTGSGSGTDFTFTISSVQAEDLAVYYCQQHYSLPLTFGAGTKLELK

>  <reported.value>
13

$$$$
>  <binder>
F4.125.12 (antibody, human IgG1, V domains shown, human-murine chimeric antibody, human IgG1 constant) VH: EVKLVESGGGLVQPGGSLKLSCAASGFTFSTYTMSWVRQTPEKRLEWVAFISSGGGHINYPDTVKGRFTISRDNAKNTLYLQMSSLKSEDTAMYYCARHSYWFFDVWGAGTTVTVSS VL: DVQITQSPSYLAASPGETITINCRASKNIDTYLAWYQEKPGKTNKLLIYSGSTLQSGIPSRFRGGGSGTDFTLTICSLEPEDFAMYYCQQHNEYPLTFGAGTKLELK

>  <reported.value>
0.734

$$$$
>  <binder>
F6.12.12 (antibody, human IgG1, V domains shown, human-murine chimeric antibody, human IgG1 constant) VH: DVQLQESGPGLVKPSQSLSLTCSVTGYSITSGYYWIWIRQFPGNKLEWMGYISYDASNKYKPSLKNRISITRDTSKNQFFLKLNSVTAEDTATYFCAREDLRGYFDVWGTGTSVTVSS VL: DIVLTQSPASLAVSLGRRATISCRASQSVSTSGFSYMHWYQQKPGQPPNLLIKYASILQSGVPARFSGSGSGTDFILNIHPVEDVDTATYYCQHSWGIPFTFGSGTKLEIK

>  <reported.value>
1.46

$$$$

These data points were gathered from patent US20250042994A1.
